Target: mouse FAP (Mus musculus, UniProt P97321)
Sequence (P97321 26-761): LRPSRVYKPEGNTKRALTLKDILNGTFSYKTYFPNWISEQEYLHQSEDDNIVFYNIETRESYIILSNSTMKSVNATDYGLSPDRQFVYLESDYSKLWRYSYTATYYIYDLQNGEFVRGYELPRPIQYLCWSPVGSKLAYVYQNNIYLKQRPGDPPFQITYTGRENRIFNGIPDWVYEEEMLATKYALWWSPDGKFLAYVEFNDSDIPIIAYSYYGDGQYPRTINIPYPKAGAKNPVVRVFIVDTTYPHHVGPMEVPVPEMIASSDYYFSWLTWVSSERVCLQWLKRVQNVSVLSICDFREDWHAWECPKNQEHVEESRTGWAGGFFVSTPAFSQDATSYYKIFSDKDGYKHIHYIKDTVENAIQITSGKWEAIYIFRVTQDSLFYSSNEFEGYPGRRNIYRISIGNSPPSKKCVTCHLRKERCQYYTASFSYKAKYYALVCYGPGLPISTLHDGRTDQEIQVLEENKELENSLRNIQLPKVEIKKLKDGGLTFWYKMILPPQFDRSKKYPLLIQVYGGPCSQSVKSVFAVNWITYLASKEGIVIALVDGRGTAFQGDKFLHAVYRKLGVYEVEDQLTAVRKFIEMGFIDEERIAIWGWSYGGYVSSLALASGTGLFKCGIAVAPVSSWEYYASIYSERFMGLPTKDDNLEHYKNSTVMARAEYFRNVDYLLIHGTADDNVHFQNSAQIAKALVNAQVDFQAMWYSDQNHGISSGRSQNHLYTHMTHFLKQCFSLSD
Non-standard residues stand in square brackets, D forms with d. Residues, ends and D or L forms follow the SMILES beside them. AEF = NCCOc1ccc(C[C@H](N)C(=O)O)cc1; mTyr = N[C@@H](Cc1cccc(O)c1)C(=O)O; Hyp = O=C(O)[C@@H]1C[C@@H](O)CN1; NMeCba = CN[C@@H](CC1CCC1)C(=O)O; NMeF = CN[C@@H](Cc1ccccc1)C(=O)O; Ahp(2) = CCCCC[C@H](N)C(=O)O
MEASURE_NAME: pIC50
Numbers only, as −log10 of the molar value.

Example entries and their recorded answers appear below.
1. CCCCC[C@@H]1NC(=O)[C@H](Cc2ccc(OCCN)cc2)NC(=O)[C@H](Cc2ccccc2)N(C)C(=O)CNC(=O)[C@@H]2C[C@@H](O)CN2C(=O)[C@H]2CCCN2C(=O)[C@H](CC(=O)O)NC(=O)[C@H](Cc2ccc(O)cc2)NC(=O)CNC(=O)[C@H](Cc2c[nH]c3ccccc23)NC1=O [Example A33] (cyclo([AEF][Ahp(2)]WGYD[dP][Hyp]G[NMeF]))
8.49
2. CCCCC[C@@H]1NC(=O)[C@H](Cc2ccc(O)cc2)NC(=O)[C@H](Cc2ccccc2)N(C)C(=O)CNC(=O)CNC(=O)[C@H]2CCCN2C(=O)[C@H](CC(=O)O)NC(=O)[C@H](Cc2cccc(O)c2)NC(=O)CNC(=O)[C@H](Cc2c[nH]c3ccccc23)NC1=O [Example A14] (cyclo([Ahp(2)]WG[mTyr]D[dP]GG[NMeF]Y))
9.43

Let us examine a further case.
Tested on mouse FAP (Mus musculus, UniProt P97321): CCCCC[C@@H]1NC(=O)[C@H](Cc2ccc(O)cc2)NC(=O)[C@H](CC2CCC2)N(C)C(=O)CNC(=O)CNC(=O)[C@H]2CCCN2C(=O)[C@H](CC(=O)O)NC(=O)[C@H](Cc2ccc(O)cc2)NC(=O)CNC(=O)[C@H](Cc2c[nH]c3ccccc23)NC1=O [Example A62] (cyclo([Ahp(2)]WGYD[dP]GG[NMeCba]Y)) . Observed pIC50: 9.51
